assay: NCI Yeast Anticancer Drug Screen. Data for the bub3 strain (AID 167); settings: S. cerevisiae bub3 mutant strain, at 50.0 µM, active compounds read high
This is part of a sample that, as a whole, favours compounds with a hit. Of some 79,000 tested, about 15% had one in any assay.
The compounds listed here are annotated with their growth inhibition.
PROPERTY MEASURED: growth inhibition (%)

>>> numeric_readout("C(=N\\NC1=NCCN1)/c1ccc(-c2cn3cc(/C=N/NC4=NCCN4)ccc3n2)cc1")
99.3
>>> numeric_readout("CCC[CH2][Sn]([CH2]CCC)([O]C(=O)c1cc(F)ccc1F)[O][Sn]([CH2]CCC)([CH2]CCC)[O]C(=O)c1cc(F)ccc1F")
81
>>> numeric_readout("Cc1c2cnccc2c(C)c2c1c1ccccc1n2CCOC(=O)c1ccccc1")
90.3
>>> numeric_readout("O=C(CCCN1CCC2(CC1)CC(c1ccccc1)OC2=O)c1ccc(F)cc1 (stereo not given)")
95.2
>>> numeric_readout("COc1nc(N)c(N=O)c(OCc2ccccc2)n1")
91.6

----------
The compounds listed here are annotated with their growth inhibition.
assay: NCI Yeast Anticancer Drug Screen. Data for the bub3 strain (AID 167); details: S. cerevisiae bub3 mutant strain, at 5.0 µM (retest, dose inferred, filed as 0.5), active compounds read high
Compounds without any hit were thinned out: in the full panel of roughly 79,000, 15% have a hit.
PROPERTY MEASURED: growth inhibition (%)

>>> numeric_readout("CC(C)(C)c1cc(C(P(=O)(c2ccccc2)c2ccccc2)P(=O)(c2ccccc2)c2ccccc2)cc(C(C)(C)C)c1O")
-4
>>> numeric_readout("CCOc1ccccc1/C=C1\\NC(=O)N(/C=C2\\C(=O)Oc3ccccc3C2=O)C1=O")
-4
>>> numeric_readout("c1ccc(C(c2ccccc2)c2ccc3ccccc3n2)cc1")
23
>>> numeric_readout("COc1cc(/C=C2/C(=O)N(C(=O)c3ccccc3O)N=C2C)cc(OC)c1OC")
12
>>> numeric_readout("COc1ccccc1NC(=O)C1=CNC(C)=C(C(=O)Nc2ccccc2OC)C1/C=C/c1ccccc1 (stereo not drawn)")
-2
>>> numeric_readout("O=C1CSC(=S)N1/N=C/c1ccc(Cl)c([N+](=O)[O-])c1")
-8
>>> numeric_readout("O=C1CC(c2ccccc2)NN1 (stereo not drawn)")
-71
>>> numeric_readout("CN1c2ccccc2Sc2c1n[nH]c2-c1ccccc1")
-1
>>> numeric_readout("N#C/C(=C1C=C/C(=N/O)c2ccccc2/1)c1ccc(Cl)cc1")
-4
>>> numeric_readout("Oc1ccc(COCCBr)c2cccnc12")
1
>>> numeric_readout("Nc1ncnc2c1ncn2C1OCC(OCc2ccccc2)C(OCc2ccccc2)C1OCc1ccccc1 (stereo not drawn)")
13
>>> numeric_readout("O=C(NC1CCN(Cc2ccccc2)CC1)c1ccc(I)cc1")
60
>>> numeric_readout("O=C(Nc1ccc(Cl)cc1)Nc1nnc(/C=C/c2ccc(Cl)c(Cl)c2)o1")
-44
>>> numeric_readout("CC(=O)N1c2ccccc2Sc2ccc3ccc(C(=O)CCl)cc3c21")
93
>>> numeric_readout("CCCC/C(=N/Nc1ccc([N+](=O)[O-])cc1)C(=O)O")
18
>>> numeric_readout("COc1ccc(CN2CCCN(Cc3ccc(OC)cc3OC)C2c2cc(Br)ccc2O)c(OC)c1")
15
>>> numeric_readout("CC(=O)c1ccc([N+](=O)[O-])o1")
21
>>> numeric_readout("O=C(NNc1ccccc1)C(O)C(=O)C(O)C(O)C(O)CO (stereo not drawn)")
8
>>> numeric_readout("COc1ccc([N+](=O)[O-])cc1NC(=O)Nc1ccc(C(=O)OCC(C)C)cc1")
-5
>>> numeric_readout("COc1ccc(/C=C/C(C(=O)O)C(=O)O)cc1")
14
>>> numeric_readout("CC(NNC(=S)N1CC2CCC(CC2)C1)c1nccc2ccccc12 (stereo not drawn)")
97
>>> numeric_readout("O=C1CCC(C(c2ccccc2)(c2ccccc2)c2ccccc2)CC1=O (stereo not drawn)")
-3
>>> numeric_readout("COc1cc2cnc(-c3ccccc3)cc2cc1OC")
48
